Tested on: L1210 leukemia ip in BDF1 mice, survival T/C
Protocol: NCI In Vivo Anticancer Drug Screen. Data for tumor model L1210 Leukemia (intraperitoneal) in B6D2F1 (BDF1) mice
Test Context: endpoint: mean survival time; dose: 200.0 mg/kg/injection; schedule: Q04DX003 (ip); vehicle: Klucel (hydroxypropylcellulose) (HPC); higher = longer survival
Inconclusive results and toxic doses are left out.
Record form. Attribute: T/C. Fill in for each entry.

Return T/C for the following molecule: Cc1ncc(C(O)c2ccc(N(C)C)cc2)n1Cc1ccccc1 (stereo not drawn)
105 % of control

Return T/C for the following molecule: Oc1c(Cl)cc(C(c2cc(Cl)c(O)c(Cl)c2)c2ccccn2)cc1Cl
104 % of control

Return T/C for the following molecule: Cc1ccc(NC2=CCC(=O)OC2=O)cc1
97 % of control

Return T/C for the following molecule: Cc1cc(OC(=O)/C=C/C(=O)Oc2cc(C)c(Cl)c(C)c2)cc(C)c1Cl
104 % of control

Return T/C for the following molecule: O=Nc1ccc(O)c2ncccc12
99 % of control

Return T/C for the following molecule: CC1(CCC(=O)O)SCSCS1
90 % of control

Return T/C for the following molecule: C[N+](C)(C)CC(=O)N/N=C\c1c(O)ccc2ccccc12
93 % of control

Return T/C for the following molecule: [N-]=[N+]=C1c2ccccc2-c2ccccc21
90 % of control

Return T/C for the following molecule: COC(=O)N1C2C3C(C)=C(C)C2(C)C3(C)S1(=O)=O (stereo not drawn)
106 % of control

Return T/C for the following molecule: CCOC(=O)NCC(CCN1CCCCC1)(c1cccc2ccccc12)C(C)C (stereo not drawn)
88 % of control

Return T/C for the following molecule: O=C1Nc2ccc(Cl)cc2C(c2ccccc2)=NC1O (stereo not drawn)
114 % of control

Return T/C for the following molecule: CC(C)N(C=O)c1ccc(C(=O)O)cc1
97 % of control

Return T/C for the following molecule: CC(=O)NNc1ccccc1Cl
117 % of control

Return T/C for the following molecule: Clc1ccc(OCOc2ccc(Cl)cc2)cc1
98 % of control

Return T/C for the following molecule: Cc1cc(Cl)ccc1NS(=O)(=O)c1ccccc1
103 % of control

Return T/C for the following molecule: CC(C)COC(=O)c1ccccc1O
96 % of control

Return T/C for the following molecule: CCO/C=C1\SC(=S)N(CCc2ccc(OC)c(OC)c2)C1=O
102 % of control

Return T/C for the following molecule: CCC(CCl)NC(=O)Nc1cccc2c1CCCC2 (stereo not drawn)
96 % of control

Return T/C for the following molecule: O=C(Nc1ccccc1)NC(O)C(Cl)(Cl)Cl (stereo not drawn)
95 % of control

Return T/C for the following molecule: CC(C)NC(=O)c1ccc(/C=N/N(C)C)cc1
101 % of control

Return T/C for the following molecule: Cc1ccc(S(=O)(=O)OCC(CO)(COS(=O)(=O)c2ccc(C)cc2)[N+](=O)[O-])cc1
105 % of control

Return T/C for the following molecule: CN(C)c1ncc(C(N)=O)cn1
96 % of control

Return T/C for the following molecule: CCOC(=O)C(C(=O)OCC)=C(C#N)c1c[nH]c2ccccc12
95 % of control

Return T/C for the following molecule: CN1CCC(OC(=O)C(O)C2CCCCC2)CC1 (stereo not drawn)
103 % of control

Return T/C for the following molecule: COc1ccc(C(C)(O)c2cnc(C)n2Cc2ccccc2)cc1 (stereo not drawn)
97 % of control

Return T/C for the following molecule: CNC(=S)N(N)c1ccccc1
103 % of control

Return T/C for the following molecule: CN(C)C(=O)Sc1ccc([N+](=O)[O-])cc1Cl
101 % of control

Return T/C for the following molecule: ClCCCN1Cc2ccccc2CCc2ccccc2C1
100 % of control

Return T/C for the following molecule: CCCCCCCCCCCCCCCC1=NN(c2ccccc2)C(=O)C1NC(=O)O (stereo not drawn)
97 % of control

Return T/C for the following molecule: O=CNNc1ccc([N+](=O)[O-])cc1
94 % of control

Return T/C for the following molecule: Cc1ccc([N+](=O)[O-])cc1NC(=O)Nc1ccc(S(N)(=O)=O)cc1
92 % of control

Return T/C for the following molecule: C#CCNc1c(C)cccc1C
97 % of control

Return T/C for the following molecule: CCCCNC(=O)Nc1cc(C)cc(C)n1
102 % of control

Return T/C for the following molecule: Cc1ccc(NN)cc1Cl
91 % of control

Return T/C for the following molecule: OCCCNc1nc2ccc(Br)cc2c2ccccc12
102 % of control

Return T/C for the following molecule: O=C(O)c1ccc(O)c([N+](=O)[O-])c1
100 % of control

Return T/C for the following molecule: Cc1ccc(NS(=O)(=O)c2ccc(F)cc2)c(C)c1
97 % of control

Return T/C for the following molecule: COc1ccc(OC)c(/C=C(/C)[N+](=O)[O-])c1
108 % of control

Return T/C for the following molecule: CN(C)c1ccc(C=O)c(Br)c1
111 % of control

Return T/C for the following molecule: S=C([S][Sn]([c]1ccccc1)([c]1ccccc1)[c]1ccccc1)N1CCCCC1
94 % of control

Return T/C for the following molecule: O=C1OC(c2ccccc2)=N/C1=C/c1cccs1
104 % of control

Return T/C for the following molecule: Cc1c(C)c(O)c(SC(CC(=O)O)C(=O)O)c(C)c1O (stereo not drawn)
103 % of control

Return T/C for the following molecule: Cc1cc(NC(=O)NCc2ccc([N+](=O)[O-])cc2Cl)ccc1S(=O)(=O)F
98 % of control

Return T/C for the following molecule: CC1SCC(=O)CS1
94 % of control

Return T/C for the following molecule: CC(=O)Nc1ccc(O)cc1
104 % of control

Return T/C for the following molecule: Cc1ccc(NC(=O)C(c2ccccc2)c2ccccc2)cc1Cl
91 % of control

Return T/C for the following molecule: CCOc1ccc(/C=C2\N=C(c3ccccc3)OC2=O)cc1
100 % of control

Return T/C for the following molecule: O=C(O)CC(c1ccccc1)C(CC(=O)O)c1ccccc1 (stereo not drawn)
95 % of control

Return T/C for the following molecule: CC(C)(NCc1ccccc1)C(=O)c1ccccc1
95 % of control

Return T/C for the following molecule: Nc1c(Br)cc(Br)cc1Br
92 % of control

Return T/C for the following molecule: O=C1CC(N2CC2)C(=O)N1c1ccccc1 (stereo not drawn)
113 % of control

Return T/C for the following molecule: CCOC(=O)NCC(CCN(C)C)(c1cccc2ccccc12)C(C)C (stereo not drawn)
97 % of control

Return T/C for the following molecule: CC(C)(C)OC(=O)CCC(NC(=O)OCc1ccccc1)C(=O)NN (stereo not drawn)
106 % of control

====

Tested on: L1210 leukemia ip in BDF1 mice, survival T/C
Protocol: NCI In Vivo Anticancer Drug Screen. Data for tumor model L1210 Leukemia (intraperitoneal) in B6D2F1 (BDF1) mice
Test Context: endpoint: mean survival time; dose: 400.0 mg/kg/injection; schedule: Q01DX001 (ip); vehicle: other; higher = longer survival
Toxic doses and inconclusive results are not listed.
Record form. Attribute: T/C. Fill in for each entry.

Return T/C for the following compound: CN(C)c1ccc(C=Nc2ccccc2)cc1
108 % of control

Return T/C for the following compound: N=C(N[N+](=O)[O-])N(CCC(=O)O)N=O
100 % of control

Return T/C for the following compound: Oc1ccccc1C=Nc1ccccc1O.[Zn+2]
91 % of control

Return T/C for the following compound: CC(=O)c1nnn(-c2ccccc2)n1
101 % of control

Return T/C for the following compound: O=c1oc(=O)c2ccccc2c2ccccc12
107 % of control

Return T/C for the following compound: COc1nc(=O)n(C2CCCO2)cc1Br (stereo not given)
98 % of control

Return T/C for the following compound: O=Nc1cc(-c2nccc3ccccc23)[nH]c1-c1ccccc1
94 % of control

Return T/C for the following compound: Cc1cc2nc(C(O)C(O)C(O)C(O)c3nc4cc(C)c(C)cc4[nH]3)[nH]c2cc1C (stereo not given)
104 % of control

Return T/C for the following compound: CCCCC(O)(C#CC(O)(CC)CCCC)CC (stereo not given)
102 % of control

Return T/C for the following compound: Clc1ccc(CNc2ncnc3[nH]ncc23)cc1
108 % of control

====

Record form. Attribute: T/C. Fill in for each entry.
System: L1210 leukemia ip in BDF1 mice, survival T/C
Protocol: NCI In Vivo Anticancer Drug Screen. Data for tumor model L1210 Leukemia (intraperitoneal) in B6D2F1 (BDF1) mice
Test Context: endpoint: mean survival time; dose: 200.0 mg/kg/injection; schedule: Q01DX001 (ip); vehicle: saline; higher = longer survival
Toxic doses and inconclusive results are not listed.

Return reported T/C for target or system L1210 leukemia ip in BDF1 mice, survival T/C, item CC(C)(C)OC(=O)C(c1ccccc1)c1ccccc1 .
106 % of control

Return reported T/C for target or system L1210 leukemia ip in BDF1 mice, survival T/C, item O=C(OCC(O)C(O)C(O)C(SCc1ccccc1)SCc1ccccc1)c1ccc([N+](=O)[O-])cc1 (configuration not stated) .
94 % of control

Return reported T/C for target or system L1210 leukemia ip in BDF1 mice, survival T/C, item OCC1OC(n2c(N3CCOCC3)nc3ccccc32)C(O)C1O (configuration not stated) .
97 % of control

Return reported T/C for target or system L1210 leukemia ip in BDF1 mice, survival T/C, item CCCCCCCc1nc2c([nH]1)c(=O)n(C)c(=O)n2C .
95 % of control

Return reported T/C for target or system L1210 leukemia ip in BDF1 mice, survival T/C, item COc1ccc(/C=C2\N=C(c3ccccc3)OC2=O)c(Cl)c1OC .
100 % of control

Return reported T/C for target or system L1210 leukemia ip in BDF1 mice, survival T/C, item NCCCCC(N)C(=O)NC1C(CO)OC(n2cnc3c(N)ncnc32)C1O (configuration not stated) .
105 % of control

Return reported T/C for target or system L1210 leukemia ip in BDF1 mice, survival T/C, item CCOC(=N)CCNS(=O)(=O)c1ccc(C)cc1 .
98 % of control

Return reported T/C for target or system L1210 leukemia ip in BDF1 mice, survival T/C, item COc1cc(C=C2c3ccccc3-c3ccccc32)ccc1O .
91 % of control

Return reported T/C for target or system L1210 leukemia ip in BDF1 mice, survival T/C, item CCSCN(C)C .
97 % of control

Return reported T/C for target or system L1210 leukemia ip in BDF1 mice, survival T/C, item Nc1ccc(CCc2ccc(S(=O)(=O)F)cc2)cc1 .
103 % of control

Return reported T/C for target or system L1210 leukemia ip in BDF1 mice, survival T/C, item C=CCCCCCCCCCC .
101 % of control

Return reported T/C for target or system L1210 leukemia ip in BDF1 mice, survival T/C, item O=C(O)C(F)(F)C(F)(F)C(=O)Nc1cc([N+](=O)[O-])ccc1F .
93 % of control
